system: Trypanosoma cruzi; assay: Anti-trypanosomal activity against Trypanosoma cruzi Bug 2149 cl10 epimastigote forms assessed as inhibition of parasite growth after 72 hrs by microplate reader based assay; assay type: functional, organism-based; conditions: Trypanosoma cruzi, Bug 2149 cl10, CL1-0, 72 h
# reported IC50; entries follow
PARAMETER: IC50 (µM)

CCCc1ccc(C(=O)N/N=C/c2ccc([N+](=O)[O-])o2)cc1: 9.8
O=C(N/N=C/c1ccc([N+](=O)[O-])o1)c1ccccc1: 14.2
O=C(N/N=C/c1ccc([N+](=O)[O-])o1)c1ccc(Cl)cc1: 14.5
O=C(N/N=C/c1ccc([N+](=O)[O-])o1)c1ccc(-c2ccccc2)cc1: 1.81
CC(=O)N/N=C/c1ccc([N+](=O)[O-])o1 [NIHYDRAZONE]: 15.8
CC(C)(C)OC(=O)N/N=C/c1ccc([N+](=O)[O-])o1: 12.2

* * *

A collection of compounds and their measured log10 IC50
test system: Trypanosoma cruzi; test: Anti-trypanosomal activity against Trypanosoma cruzi Silvio X10 cl1 epimastigote forms assessed as inhibition of parasite growth after 72 hrs by microplate reader based assay; type: functional, organism-based; details: Trypanosoma cruzi, Silvio X10 cl1, 72 h
PARAMETER: log10 IC50 (log10 of the value in µM)

CN(C)c1ccc(C(=O)N/N=C/c2ccc([N+](=O)[O-])o2)cc1: 2.00
CCCCCC(=O)N/N=C/c1ccc([N+](=O)[O-])o1: 0.99
O=C(N/N=C/c1ccc([N+](=O)[O-])o1)c1ccccc1Oc1ccccc1: 1.09
CC(=O)N/N=C/c1ccc([N+](=O)[O-])o1 [NIHYDRAZONE]: 1.43
CC(C)c1ccc(C(=O)N/N=C/c2ccc([N+](=O)[O-])o2)cc1: 0.78
CCCc1ccc(C(=O)N/N=C/c2ccc([N+](=O)[O-])o2)cc1: 1.01
CCCCCCCC(=O)N/N=C/c1ccc([N+](=O)[O-])o1: 1.17
O=C(N/N=C/c1ccc([N+](=O)[O-])o1)c1ccc(-c2ccccc2)cc1: 0.50
CC(C)(C)c1ccc(C(=O)N/N=C/c2ccc([N+](=O)[O-])o2)cc1: 1.14
Cc1cccc(C(=O)N/N=C/c2ccc([N+](=O)[O-])o2)c1: 1.44
CCCCNc1ccc(C(=O)N/N=C/c2ccc([N+](=O)[O-])o2)cc1: 0.64
O=C(N/N=C/c1ccc([N+](=O)[O-])o1)C1CCCC1: 1.30
CCCCc1ccc(C(=O)N/N=C/c2ccc([N+](=O)[O-])o2)cc1: 0.68
O=C(N/N=C/c1ccc([N+](=O)[O-])o1)C1CCCCC1: 1.14
CCCCOc1ccc(C(=O)N/N=C/c2ccc([N+](=O)[O-])o2)cc1: 0.71
N#Cc1ccc(C(=O)N/N=C/c2ccc([N+](=O)[O-])o2)cc1: 1.57
O=C(N/N=C/c1ccc([N+](=O)[O-])o1)c1ccccc1: 1.49
CC(C)(C)OC(=O)N/N=C/c1ccc([N+](=O)[O-])o1: 1.14
O=C(Cc1ccccc1)N/N=C/c1ccc([N+](=O)[O-])o1: 1.31
CCCOc1ccc(C(=O)N/N=C/c2ccc([N+](=O)[O-])o2)cc1: 1.11
O=C(N/N=C/c1ccc([N+](=O)[O-])o1)c1ccc(Cl)cc1: 1.30

* * *

IC50 by entry:
system: Trypanosoma cruzi; assay: Anti-trypanosomal activity against Trypanosoma cruzi Bug 2149 cl10 epimastigote forms assessed as inhibition of parasite growth after 72 hrs by microplate reader based assay; format: functional, organism-based; details: Trypanosoma cruzi, Bug 2149 cl10, CL1-0, 72 h
PARAMETER: IC50 (µM)

CCCCc1ccc(C(=O)N/N=C/c2ccc([N+](=O)[O-])o2)cc1: 4.41
O=C(N/N=C/c1ccc([N+](=O)[O-])o1)c1ccc(O)cc1 [NIFUROXAZIDE]: 300
CCCCCCCC(=O)N/N=C/c1ccc([N+](=O)[O-])o1: 14.4
CCCOc1ccc(C(=O)N/N=C/c2ccc([N+](=O)[O-])o2)cc1: 9.72
O=C(N/N=C/c1ccc([N+](=O)[O-])o1)C1CCCC1: 14.6
CCCCCC(=O)N/N=C/c1ccc([N+](=O)[O-])o1: 12.2
Cc1cccc(C(=O)N/N=C/c2ccc([N+](=O)[O-])o2)c1: 24.8

* * *

experiment: Selectivity index, ratio of IC50 for human LL24 cells to IC50 for Trypanosoma cruzi Silvio X10 cl1 epimastigote forms; assay type: toxicity, cell-based; conditions: read-out: Ratio IC50
Listed here are molecules together with their documented selectivity ratio.
PARAMETER: selectivity ratio

CCCCCC(=O)N/N=C/c1ccc([N+](=O)[O-])o1: 10
CCCCNc1ccc(C(=O)N/N=C/c2ccc([N+](=O)[O-])o2)cc1: 11
O=C(N/N=C/c1ccc([N+](=O)[O-])o1)C1CCCC1: 3
CCCc1ccc(C(=O)N/N=C/c2ccc([N+](=O)[O-])o2)cc1: 9
O=C(N/N=C/c1ccc([N+](=O)[O-])o1)c1ccccc1: 5.72
O=C(Cc1ccccc1)N/N=C/c1ccc([N+](=O)[O-])o1: 4.79
CCCCCCCC(=O)N/N=C/c1ccc([N+](=O)[O-])o1: 6

* * *

assay: Selectivity index, ratio of IC50 for human LL24 cells to IC50 for Trypanosoma cruzi Y epimastigote forms; assay type: toxicity, cell-based; details: read-out: Ratio IC50
Recorded selectivity ratio, one value per entry.
PARAMETER: selectivity ratio

CCCCc1ccc(C(=O)N/N=C/c2ccc([N+](=O)[O-])o2)cc1: > 64
O=C(N/N=C/c1ccc([N+](=O)[O-])o1)c1ccccc1Oc1ccccc1: > 26
O=C(N/N=C/c1ccc([N+](=O)[O-])o1)C1CCCC1: 5
Cc1cccc(C(=O)N/N=C/c2ccc([N+](=O)[O-])o2)c1: > 20
O=C(N/N=C/c1ccc([N+](=O)[O-])o1)C1CCCCC1: > 14
O=C(N/N=C/c1ccc([N+](=O)[O-])o1)c1ccc(-c2ccccc2)cc1: > 176
O=C(Cc1ccccc1)N/N=C/c1ccc([N+](=O)[O-])o1: 8.83
O=C(N/N=C/c1ccc([N+](=O)[O-])o1)c1ccc(O)cc1 [NIFUROXAZIDE]: > 1
CN(C)c1ccc(C(=O)N/N=C/c2ccc([N+](=O)[O-])o2)cc1: > 2
CC(C)(C)c1ccc(C(=O)N/N=C/c2ccc([N+](=O)[O-])o2)cc1: > 21
CCCCNc1ccc(C(=O)N/N=C/c2ccc([N+](=O)[O-])o2)cc1: 14
CCCCCCCC(=O)N/N=C/c1ccc([N+](=O)[O-])o1: 7
O=C(N/N=C/c1ccc([N+](=O)[O-])o1)c1ccc(Cl)cc1: 20.4
O=C(N/N=C/c1ccc([N+](=O)[O-])o1)c1ccccc1: 14
CCCCCC(=O)N/N=C/c1ccc([N+](=O)[O-])o1: 10
CCCCOc1ccc(C(=O)N/N=C/c2ccc([N+](=O)[O-])o2)cc1: > 58
CC1CS(=O)(=O)CCN1/N=C/c1ccc([N+](=O)[O-])o1 (stereo not drawn): > 16
CC(C)(C)OC(=O)N/N=C/c1ccc([N+](=O)[O-])o1: > 21
CCCOc1ccc(C(=O)N/N=C/c2ccc([N+](=O)[O-])o2)cc1: > 27
CCCc1ccc(C(=O)N/N=C/c2ccc([N+](=O)[O-])o2)cc1: 10
CC(C)c1ccc(C(=O)N/N=C/c2ccc([N+](=O)[O-])o2)cc1: > 51
CC(=O)N/N=C/c1ccc([N+](=O)[O-])o1 [NIHYDRAZONE]: > 15
N#Cc1ccc(C(=O)N/N=C/c2ccc([N+](=O)[O-])o2)cc1: > 9

* * *

Catalogue of compounds with associated selectivity ratio
test: Selectivity index, ratio of IC50 for human LL24 cells to IC50 for Trypanosoma cruzi Silvio X10 cl1 epimastigote forms; assay type: toxicity, cell-based; settings: read-out: Ratio IC50
PARAMETER: selectivity ratio

CC(C)c1ccc(C(=O)N/N=C/c2ccc([N+](=O)[O-])o2)cc1: > 33
O=C(N/N=C/c1ccc([N+](=O)[O-])o1)c1ccc(-c2ccccc2)cc1: > 63
CCCCOc1ccc(C(=O)N/N=C/c2ccc([N+](=O)[O-])o2)cc1: > 39

* * *

Items are presented alongside their recorded selectivity ratio.
assay: Selectivity index, ratio of IC50 for human LL24 cells to IC50 for Trypanosoma cruzi Bug 2149 cl10; assay type: toxicity, cell-based; conditions: read-out: Ratio IC50
PARAMETER: selectivity ratio

O=C(Cc1ccccc1)N/N=C/c1ccc([N+](=O)[O-])o1: 7.91
CCCCc1ccc(C(=O)N/N=C/c2ccc([N+](=O)[O-])o2)cc1: > 45
CCCCNc1ccc(C(=O)N/N=C/c2ccc([N+](=O)[O-])o2)cc1: 11
O=C(N/N=C/c1ccc([N+](=O)[O-])o1)c1ccccc1Oc1ccccc1: > 16
N#Cc1ccc(C(=O)N/N=C/c2ccc([N+](=O)[O-])o2)cc1: > 8
CCCCOc1ccc(C(=O)N/N=C/c2ccc([N+](=O)[O-])o2)cc1: > 47
